# experiment: human hepatoma cell viability loss – ATP luminescence, cytotoxicity control for P. falciparum antimalarial project, primary screen (AID 2303);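 also: 0% = DMSO wells and 100% = digitonin-killed cells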
# experimental.conditions: HepG2 viability, 24-48 h, at 10 µM, stronger effect = higher value
measurement.type: inhibition (%)

compound: Cc1nnnn1-c1ccc(C(=O)N2CCC3(CC2)CN(Cc2ccc(Cl)c(Cl)c2)C(=O)O3)cc1
recorded.result: 2

compound: COc1cc(Cc2cnc(N)nc2N)cc(OC)c1OCCNC(=O)[C@@H](N)CCC(=O)O
recorded.result: -1

compound: O=C(NC12CC3CC(CC(C3)C1)C2)C(=O)c1c[nH]c2ccccc12
recorded.result: 16

compound: CN1CCC(C(=O)Nc2ccc(-c3ccc(-c4nc5ccc(C(F)(F)F)cc5[nH]4)s3)cc2)CC1
recorded.result: 53

compound: Cc1cccc2[nH]c(-c3cccc(-c4ccc(NC(=O)Nc5ccc6c(c5)OCO6)cc4)c3)nc12
recorded.result: 80

compound: COc1ccc(F)cc1-c1ccc(C(=O)N2CCCN(c3ccc(C#N)cn3)CC2)cc1
recorded.result: 9

compound: Cc1cccc2[nH]c(-c3ccc(-c4ccc(CN5CC(C)OC(C)C5)cc4)cc3)nc12 (stereo not given)
recorded.result: 37

compound: Cc1cccnc1Nc1nc(-c2ccccn2)cs1
recorded.result: 60

compound: O=C(c1cccc(-c2ccc(-c3nc4ccc(C(F)(F)F)cc4[nH]3)cc2)c1)N1CCCCC1CN1CCC(O)C1 (stereo not given)
recorded.result: 19

compound: COc1ccc(-c2ccc(NC(=O)c3ccc(Cl)cc3)cc2)cc1CN1CCCN(C)CC1
recorded.result: 27

compound: O=C(Nc1ccc2c(c1)OCO2)NC1CCN(c2ccnc(NCc3ccc(F)cc3)n2)CC1
recorded.result: 33

compound: Nc1cccc(-c2ccc3ccnc(N)c3c2)c1
recorded.result: 30

compound: CC(C)NCc1cccc(-c2cccc(-c3nc4ccccc4[nH]3)c2)c1
recorded.result: 11

compound: CN(Cc1ccc(NC(=O)CCC2CCN(C(=O)/C=C/c3ccc(Cl)c(Cl)c3)CC2)cc1)C1CCOCC1
recorded.result: 10

compound: Cc1cc(Oc2ccc(-n3ccnc3)cc2)nc(N2CCN(CCCN3CCCC3)CC2)n1
recorded.result: 5

====

# experiment: human hepatoma cell viability loss – ATP luminescence, cytotoxicity control for P. falciparum antimalarial project, primary screen (AID 2303);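 also: 0% = DMSO wells and 100% = digitonin-killed cells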
# experimental.conditions: HepG2 viability, 24-48 h, at 10 µM, stronger effect = higher value
Lab note: cut-off is 20%. Strictly less in inhibition is fulfilled. Exactly 20% or more is not fulfilled.

molecule: CCC(C)CC(=O)Nc1ccc(OC)c(S(=O)(=O)N[C@@H]2CCN(C#N)C2)c1 (stereo partly specified)
qualitative.label: fulfilled
--
molecule: O=C(c1cccc(-c2noc(C(F)(F)F)n2)c1)N1CCN(c2ccncc2)CC1
qualitative.label: fulfilled
--
molecule: NC(=O)Nc1ccc2c(Nc3ccc(OCc4ccccc4)cc3)ncnc2c1
qualitative.label: fulfilled
--
molecule: Cc1ccc(NS(=O)(=O)c2cccs2)cc1-c1cccc(C(=O)Nc2ccc(F)cc2)c1
qualitative.label: not fulfilled
--
molecule: Cc1[nH]c(C)c(-c2ccc(C(F)(F)F)cc2)c(=O)c1Br
qualitative.label: fulfilled
--
molecule: CN(CCCCCN1CCC(NC(=O)Nc2ccc(Oc3ccccc3)cc2)C1)C(=O)/C=C/c1ccc(Cl)c(Cl)c1 (stereo unspecified)
qualitative.label: not fulfilled
--
molecule: CCN(Cc1ccc(-c2ccc(C(F)(F)F)cc2)cc1)C(=O)Cn1c(SCc2cccc(F)c2F)cc(=O)c2cc(CN3CCCCC3)ccc21
qualitative.label: not fulfilled
--
molecule: O=C(/C=C/c1ccc(Cl)cc1)NCCCCCN1CCC(C(=O)Nc2ccc(Cl)cc2)CC1
qualitative.label: not fulfilled
--
molecule: CCOc1ccc(C(C)NC(=O)c2ccc(OC)c(Br)c2)cc1OCC (stereo unspecified)
qualitative.label: fulfilled
--
molecule: CC(C)CCN(Cc1cncn1Cc1ccccc1F)C(=O)c1cncc(-c2ccccc2)c1
qualitative.label: fulfilled
--
molecule: Cn1ccc(C(=O)Nc2ccc3c(c2)CN(Cc2ccc(N4CCCC4)o2)CCC3)n1
qualitative.label: fulfilled
--
molecule: O=C(Nc1cccc(C(F)(F)F)c1)NC1CCN(c2ccnc3ccccc23)C1 (stereo unspecified)
qualitative.label: not fulfilled
--
molecule: CN1CCC(c2c[nH]c3ccc(NC(=O)Nc4ccc(-c5ccncc5)c(Cl)c4Cl)cc23)CC1
qualitative.label: not fulfilled
--
molecule: Cc1ccc2sc(N3CCN(C(=O)c4ccc([N+](=O)[O-])o4)CC3)nc2c1C
qualitative.label: fulfilled
--
molecule: Clc1ccc(CNC2CCN(CC3CCCCC3)CC2)cc1
qualitative.label: fulfilled
--
molecule: COC(=O)c1cc2cccc(NC[C@@H](C)NC[C@H](O)c3cccc(Cl)c3)c2[nH]1
qualitative.label: fulfilled
--
molecule: Cc1cccc2[nH]c(-c3cccc(-c4cccc(NC(=O)C(C)CN5CCN(C)CC5)c4)c3)nc12 (stereo unspecified)
qualitative.label: fulfilled
--
molecule: COC(=O)C(=O)c1c(-c2ccccc2)c(-c2ccc(OC)c(OC)c2)c2c3cc(OC)c(OC)cc3ccn12
qualitative.label: fulfilled
--
molecule: Cc1cccn2c(=O)c3cc(C(=O)NC(C)c4ccccc4)c(=N)n(CCN4CCOCC4)c3nc12 (stereo unspecified)
qualitative.label: fulfilled
--
molecule: FC(F)(F)c1ccc2nc(-c3cccc(-c4cccc(CN5CCN(c6ccncc6)CC5)c4)c3)[nH]c2c1
qualitative.label: not fulfilled
--
molecule: COc1ccc(CNCCc2cccs2)cc1-c1ccc(S(=O)(=O)NCCN2CCCC2)s1
qualitative.label: not fulfilled
--
molecule: CC(C)[C@H](NC(=O)c1ccc(O)c(-c2cccc(C(F)(F)F)c2)c1)C(=O)NC1CCCc2ccccc21 (stereo partly specified)
qualitative.label: fulfilled
--
molecule: COc1ccc(Cl)cc1N1CCN(CCCNC(=O)c2ccc(-c3nc4cc(Cl)c(C)cc4[nH]3)s2)CC1
qualitative.label: fulfilled
--
molecule: COc1ccc(OCC(=O)Nc2nc(-c3ccc(OC)cc3)c(C)s2)cc1
qualitative.label: fulfilled
--
molecule: Fc1ccc2nc(-c3ccc(-c4ccc(CN5CCN(c6ccncc6)CC5)cc4)cc3)[nH]c2c1
qualitative.label: not fulfilled
--
molecule: CN1CCN(CCCN(Cc2csc(-c3ccc(CNCc4ccccc4)cc3)n2)C(=O)Nc2cc(Cl)cc(Cl)c2)CC1
qualitative.label: not fulfilled
--
molecule: NC(N)=NN=CC(=O)Nc1ccc(Cl)cc1
qualitative.label: fulfilled
--
molecule: CCN(CC)CCN(Cc1ccc(-c2ccc(C(F)(F)F)cc2)cc1)C(=O)Cn1c(/C=C/c2ccco2)nc(=O)c2ccccc21
qualitative.label: not fulfilled
--
molecule: O=C(NCC1CCC1)c1cnc(Nc2cccc(Cl)c2)nc1N1CCC1
qualitative.label: not fulfilled
